Listed here: items and their measured Kd.
Target: T1, human TIGIT protein (human, UniProt Q495A1 22-141, limits assumed)
T1 construct: Recombinant protein (Genentech) used in ELISA screening and as SPR analyte; also called TIGIT antigen
T1 sequence: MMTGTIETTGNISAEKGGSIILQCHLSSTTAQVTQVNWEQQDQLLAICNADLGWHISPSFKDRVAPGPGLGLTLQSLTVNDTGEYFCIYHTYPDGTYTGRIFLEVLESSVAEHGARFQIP
Experiment: SPR, monovalent affinity
Field: numeric (nM). Do not append units.

7.4A3.C96Y.Q1E (antibody, V domains shown, No entry is tied to this variant by name; built from 7.4A3 with the two named changes (Q1E in the heavy chain, C96Y in HVR-L3); also called 7.4A3.Q1E.C96Y) VH: EVQLVQSGSDLKKPGASVRVSCKASGYTFTSYPMNWVRQAPGHGLEWMGWINTNTGNPTYVQGFTGRFVFSLDTSVNTAYLQISSLKAEDTAVYFCARTGGHTYDSYAFDVWGQGTMVTVSS VL: DIQLTQSPTFLSASVGDRVTITCRASQVISSSLAWYQQNPGKAPKLLIYAASTLQSGVPSRFSGSGSGTEFTLTISSLQPEDFVTYYCQHLHGYPYNFGQGTKVEIK ... 98.1

Okay, next one:
Query: Give me measured Kd, please, for this binder: h7E7.L1H1 (antibody, V domains shown, First humanized version; FR/HVR pieces in order; also called h1.7E7.L1H1) VH: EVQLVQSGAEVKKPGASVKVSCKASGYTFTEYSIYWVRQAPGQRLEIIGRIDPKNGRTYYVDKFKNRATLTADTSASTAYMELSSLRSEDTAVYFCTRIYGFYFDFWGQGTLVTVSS VL: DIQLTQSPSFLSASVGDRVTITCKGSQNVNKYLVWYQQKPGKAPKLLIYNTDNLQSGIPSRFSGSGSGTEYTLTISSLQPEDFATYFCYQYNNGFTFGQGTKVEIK
Reply: 0.33
